- Test system: OVCAR-3 ovarian
- Protocol summary: NCI-60 one-dose screen, 48 h (100 = growth as untreated, 0 = no growth, -100 = all killed)
- Study conditions: 10 µM unless noted
This is part of a sample that, as a whole, favours compounds with a hit. Of some 83,000 tested, about 20% had one in any assay.
This section presents compounds with their documented growth values.
The answer is to be given in %; state only the numeric part.

// worked examples, growth included
{"columns": ["Compound", "Quantity", "Endpoint result"],
 "data": [
  ["CC1(C)CC(=O)CC(C)(C)N1N=O", "growth", 101],
  ["CC(C)C1c2ccc(O)cc2Oc2nc(N)c(C#N)c(N)c21 (stereo unspecified)", "growth", 124]
]}

[Q] Assign growth to the following record: COc1ccc2c(c1)NC1=C(C(=O)OC1)C2c1cc(OC)c(OC)c(OC)c1 (stereo unspecified)
[A] -41.9

[Q] State, in one line, measured growth of C[CH2][Sn]([CH2]C)([CH2]C)[NH]S(=O)(=O)c1ccc(C)cc1
[A] 113

[Q] Give growth for O=C(O)CNC(=O)c1ccccc1
[A] 105

[Q] Kindly indicate its recorded growth. Item: CC(CC(C#N)(c1ccccc1)c1ccccc1)N1CCOCC1 (stereo unspecified)
[A] 105

[Q] Answer with the recorded growth for the compound listed here: COC[CH2][Hg][C]#[C][Hg][CH2]COC
[A] 113

[Q] Read the entry CCOc1cc(C=C(C#N)C#N)cc(Br)c1O and write its reported growth.
[A] 98.8

[Q] Provide one value: measured growth of C[C@]12CC[C@@H]3c4ccc(OC(=O)Cc5ccc(N(CCCl)CCCl)cc5)cc4CC[C@H]3[C@@H]1CC[C@@H]2OC(=O)Cc1ccc(N(CCCl)CCCl)cc1
[A] 109

[Q] Give growth for CC(=O)O[C@@H]1C2=C(C)C3(CC3)[C@@](C)(O)C(=O)C2=C[C@@]1(C)CO
[A] -9.99

[Q] Please indicate growth recorded for CCC(C)/C=C(C)/C=C/C(=O)c1c(O)c(-c2ccc(O)cc2)c[nH]c1=O (stereo unspecified)
[A] 40.7

The measured values listed here are drawn from PubChem BioAssay (NCI).
